Target: NOS3 (Bos taurus, UniProt P29473)
Assay: 14-C-L-arginine to 14-C-L-citrulline conversion by purified recombinant NOS3
Format: biochemical, bovine
Conditions: purified recombinant enzyme
Experimental readout: Estimated ED50 NOS3

Given C/C1=C2/[N-]C([C@H](CC(N)=O)[C@@]2(C)CCC(=O)NCC(C)O)[C@]2(C)N=C(/C(C)=C3N=C(/C=C4N=C1[C@@H](CCC(N)=O)C\4(C)C)[C@@H](CCC(N)=O)[C@]\3(C)CC(N)=O)[C@@H](CCC(N)=O)[C@]2(C)CC(N)=O.[C-]#N.[C-]#N.[Co] (stereo partly shown) [Dicyanocobinamide] , respond with its Estimated ED50 NOS3.
0.33 µM

Give Estimated ED50 NOS3 for C/C1=C2/[N-][C@H]([C@H](CC(N)=O)[C@@]2(C)CCC(=O)NC[C@@H](C)OP(=O)([O-])O[C@H]2[C@@H](O)[C@@H](n3cnc4cc(C)c(C)cc43)O[C@@H]2CO)[C@]2(C)N=C(/C(C)=C3N=C(/C=C4N=C1[C@@H](CCC(N)=O)C\4(C)C)[C@@H](CCC(N)=O)[C@]\3(C)CC(N)=O)[C@@H](CCC(N)=O)[C@]2(C)CC(N)=O.[Co+3].[OH-] [Hydroxocobalamin]
9.1 µM

Give Estimated ED50 NOS3 for the following molecule: C/C1=C2N=C(/C=C3N=C(/C(C)=C4\[N-]C(C(CC(N)=O)C4(C)CCC(=O)NCC(C)OP(=O)([O-])OC4C(CO)OC(n5cnc6cc(C)c(C)cc65)C4O)C4(C)N=C1C(CCC(N)=O)C4(C)CC(N)=O)C(CCC(N)=O)C\3(C)C)C(CCC(N)=O)C/2(C)CC(N)=O.NC(CCC(=O)NC(C[S-])C(=O)NCC(=O)O)C(=O)O.[Co+3] (stereo not shown)
41.0 µM

// Input: C/C1=C2/[N-][C@H]([C@H](CC(N)=O)[C@@]2(C)CCC(=O)NC[C@@H](C)O)[C@]2(C)N=C(/C(C)=C3N=C(/C=C4N=C1[C@@H](CCC(N)=O)C\4(C)C)[C@@H](CCC(N)=O)[C@]\3(C)CC(N)=O)[C@@H](CCC(N)=O)[C@]2(C)CC(N)=O.[Co+3] [Cobinamide] . Output its Estimated ED50 NOS3 only.
43.0 µM
